Biological target: bacterial DHFR (bDHFR) (Escherichia coli)
Construct: gift of Eric Brown, McMaster University
Assay: DHFR enzyme assay, Ki determination, bacterial DHFR
Assay type: biochemical, E. coli
Details: average; read-out: bDHFR Ki/(μM) avg
For each record, write down the corresponding Ki.
Answers are plain numbers, in µM.

Past entries and their recorded results:
Recorded Ki (compound C=CCN(Cc1cnc2nc(N)nc(N)c2n1)c1ccccc1 [Compound 46] ): 0.093

Recorded Ki (compound CC(c1ccc(Cl)c2ccccc12)N(C)c1ncc2c(N)nc(N)nc2n1 (stereo not shown) [Compound 30] ): 0.028

Recorded Ki (compound CC(c1cccc2ccccc12)N(CCC(C)(C)C)c1ncc2c(N)nc(N)nc2n1 (stereo not shown) [Compound 60] ): 0.029

Recorded Ki (compound CC(c1ccc(F)c2ccccc12)N(C)c1ncc2c(N)nc(N)nc2n1 (stereo not shown) [Compound 23] ): 0.027

Recorded Ki (compound Cc1ccc(C(C)N(CC2CC2)c2ncc3c(N)nc(N)nc3n2)c2ccccc12 (stereo not shown) [Compound 52] ): 0.022

Each compound below has a recorded value; state its Ki.
1. CC(c1ccc(OCc2c(F)cccc2Cl)cc1)N(C)c1ncc2c(N)nc(N)nc2n1 (stereo not shown) [Compound 48]
2. CN(Cc1cnc2nc(N)nc(N)c2n1)c1cccc([N+](=O)[O-])c1 [Compound 21]
3. C=CCN(c1ncc2c(N)nc(N)nc2n1)C(C)c1cccc2ccccc12 (stereo not shown) [Compound 34]
4. CCCN(Cc1cnc2nc(N)nc(N)c2n1)c1ccccc1 [Compound 61]
5. CC(c1ccnc2ccccc12)N(C)c1ncc2c(N)nc(N)nc2n1 (stereo not shown) [Compound 39]
6. CCN(c1ncc2c(N)nc(N)nc2n1)C(C)c1ccc(C)c2ccccc12 (stereo not shown) [Compound 50]

Reply text:
1: 0.007; 2: 0.082; 3: 0.014; 4: 0.013; 5: 0.015; 6: 0.004

Each compound below has a recorded value; state its Ki.
1. CC(c1cccc2ccccc12)N(CCc1ccccc1)c1ncc2c(N)nc(N)nc2n1 (stereo not shown) [Compound 26]
2. CCC(c1ccc(F)c2ccccc12)N(C)c1ncc2c(N)nc(N)nc2n1 (stereo not shown) [Compound 40]
3. CCN(c1ncc2c(N)nc(N)nc2n1)C(C)c1cccc2ccccc12 (stereo not shown) [Compound 45]
4. CC(c1ccc2c3c(cccc13)CC2)N(C)c1ncc2c(N)nc(N)nc2n1 (stereo not shown) [Compound 28]

Reply text:
1: 0.02; 2: 0.004; 3: 0.008; 4: 0.02

Each compound below has a recorded value; state its Ki.
1. CC(c1c2c(cc3ccccc13)CCCC2)N(C)c1ncc2c(N)nc(N)nc2n1 (stereo not shown) [Compound 27]
2. C[C@H](c1cccc2ccccc12)N(C)c1ncc2c(N)nc(N)nc2n1 [Compound 22]

Reply text:
[0.008, 0.002]

Each compound below has a recorded value; state its Ki.
1. CCN(c1ncc2c(N)nc(N)nc2n1)[C@H](C)c1ccc(C)c2ccccc12 [Compound 32]
2. CC[C@H](c1cccc2ccccc12)N(C)c1ncc2c(N)nc(N)nc2n1 [Compound 42]
3. CC(c1cccc2ccccc12)N(CCCCO)c1ncc2c(N)nc(N)nc2n1 (stereo not shown) [Compound 58]
4. CC(c1csc2ccccc12)N(C)c1ncc2c(N)nc(N)nc2n1 (stereo not shown) [Compound 25]
5. CCC(c1cccc2ccccc12)N(C)c1ncc2c(N)nc(N)nc2n1 (single isomer, unassigned) [Compound 41]

Reply text:
0.011
0.004
0.015
0.004
0.037

====

For each record, write down the corresponding MIC.
Tested on: S. aureus
Experiment: Microdilution antimicrobial susceptibility test (MIC)
Type: cell-based
Conditions: Staphylococcus aureus; MIC, average; read-out: S. aureus (μg/ml) avg
Answers are plain numbers, in µg/mL.

Recorded MIC (compound CCC(c1cccc2ccccc12)N(C)c1ncc2c(N)nc(N)nc2n1 (stereo not drawn) [Compound 33] ): 0.015

Recorded MIC (compound C[C@H](c1csc2ccccc12)N(CC1CC1)c1ncc2c(N)nc(N)nc2n1 ): 2

Recorded MIC (compound CC(c1cccc2ccccc12)N(CCc1cccc(F)c1)c1ncc2c(N)nc(N)nc2n1 (stereo not drawn) ): 2

Each compound below has a recorded value; state its MIC.
1. Cc1[nH]ncc1CCCN(c1ncc2c(N)nc(N)nc2n1)C(C)c1cccc2ccccc12 (stereo not drawn)
2. CC(c1ccc(F)c2ccccc12)N(C)c1ncc2c(N)nc(N)nc2n1 (stereo not drawn)

Reply text:
1: 2; 2: 1

Each compound below has a recorded value; state its MIC.
1. Cc1ccc(C(C)N(CC2CC2)c2ncc3c(N)nc(N)nc3n2)c2ccccc12 (stereo not drawn)
2. CC(c1c2c(cc3ccccc13)CCCC2)N(CC1CC1)c1ncc2c(N)nc(N)nc2n1 (stereo not drawn)
3. CC(c1ccc(OCc2c(F)cccc2Cl)cc1)N(C)c1ncc2c(N)nc(N)nc2n1 (stereo not drawn)
4. C=CCN(Cc1cnc2nc(N)nc(N)c2n1)c1ccccc1

Reply text:
2
1
2
2

Each compound below has a recorded value; state its MIC.
1. CC(c1c2c(cc3ccccc13)CCCC2)N(C)c1ncc2c(N)nc(N)nc2n1 (stereo not drawn)
2. CCN(c1ncc2c(N)nc(N)nc2n1)[C@H](C)c1ccc(C)c2ccccc12
3. CC(c1csc2ccccc12)N(C)c1ncc2c(N)nc(N)nc2n1 (stereo not drawn)

Reply text:
0.5
0.5
0.25

Each compound below has a recorded value; state its MIC.
1. C=CCN(c1ncc2c(N)nc(N)nc2n1)C(C)c1cccc2ccccc12 (stereo not drawn)
2. CC(c1ccnc2ccccc12)N(C)c1ncc2c(N)nc(N)nc2n1 (stereo not drawn)

Reply text:
1
0.25

====

Test system: S. aureus
Assay: Microdilution antimicrobial susceptibility test (MIC)
Assay type: cell-based
Settings: Staphylococcus aureus; MIC, average; read-out: S. aureus (μg/ml) avg
assay metric: MIC (µg/mL)
Numbers only, in µg/mL.

Recorded MIC (compound C[C@@H](c1ccc(F)c2ccccc12)N(C)c1ncc2c(N)nc(N)nc2n1 ): 0.5

Recorded MIC (compound CC(c1cccc2ccccc12)N(C)c1ncc2c(N)nc(N)nc2n1 (stereo not drawn) ): 0.25

Recorded MIC (compound CC(c1cccc2ccccc12)N(CCc1ccccc1)c1ncc2c(N)nc(N)nc2n1 (stereo not drawn) ): 1

Query compound follows.
Recorded MIC (compound CCc1ccc2ccccc2c1C(C)N(C)c1ncc2c(N)nc(N)nc2n1 (stereo not drawn) ): 2

====

Target: bacterial DHFR (bDHFR) (Escherichia coli)
Construct: gift of Eric Brown, McMaster University
Assay: DHFR enzyme assay, Ki determination, bacterial DHFR
Format: biochemical, E. coli
Settings: average; read-out: bDHFR Ki/(μM) avg
For each record, write down the corresponding Ki.
Provide a numeric answer, followed by its unit.

Past entries and their recorded results:
Recorded Ki (compound Nc1nc(N)c2nc(CNc3cccc(OCc4ccccc4)c3)cnc2n1 ): 0.062 µM

Recorded Ki (compound Cc1[nH]ncc1CCCN(c1ncc2c(N)nc(N)nc2n1)C(C)c1cccc2ccccc12 (stereo not shown) ): 0.022 µM

Recorded Ki (compound CCCOCCN(c1ncc2c(N)nc(N)nc2n1)C(C)c1cccc2ccccc12 (stereo not shown) ): 0.02 µM

Others:
Recorded Ki (compound CC(c1ccc(Cl)c2ccccc12)N(CC1CC1)c1ncc2c(N)nc(N)nc2n1 (stereo not shown) ): 0.019 µM

====

Target: bacterial DHFR (bDHFR) (Escherichia coli, UniProt P0ABQ4)
Construct: gift of Eric Brown, McMaster University
Assay: DHFR enzyme assay, Ki determination, bacterial DHFR
Format: biochemical, E. coli
Conditions: second part of table; read-out: bDHFR
assay metric: Ki (nM)
One number for each entry, in nM.

Past entries and their recorded results:
Recorded Ki (compound Cc1ccc(C(C)N(C)c2ncc3c(N)nc(N)nc3n2)c2ccccc12 (stereo not drawn) [Compound 62] ): 802

Recorded Ki (compound Nc1nc(N)c2nc(CNc3ccc(Cl)c4ccccc34)cnc2n1 [Compound 63] ): 104

Recorded Ki (compound CCN(c1ncc2c(N)nc(N)nc2n1)[C@H](C)c1csc2ccccc12 [Compound 36] ): 5

Recorded Ki (compound CC(c1ccc(Cl)c2ccccc12)N(C)c1ncc2c(N)nc(N)nc2n1 (stereo not drawn) [Compound 30] ): 24

Each compound below has a recorded value; state its Ki.
1. CCC(c1cccc2ccccc12)N(C)c1ncc2c(N)nc(N)nc2n1 (stereo not drawn) [Compound 33]
2. CN(Cc1cnc2nc(N)nc(N)c2n1)c1cccc([N+](=O)[O-])c1 [Compound 21]
3. Cc1ccc(C(F)(F)F)cc1NCc1cnc2nc(N)nc(N)c2n1 [Compound 64]

Reply text:
1. 12
2. 82
3. 385

====

Tested on: S. aureus
Test: Microdilution antimicrobial susceptibility test (MIC)
Type: cell-based
Details: Staphylococcus aureus; MIC, average; read-out: S. aureus (μg/ml) avg
For each record, write down the corresponding MIC.
Give bare numbers, in µg/mL.

Past entries and their recorded results:
Recorded MIC (molecule Nc1nc(N)c2nc(CNc3cccc(OCc4ccccc4)c3)cnc2n1 ): 0.5

Recorded MIC (molecule CC(c1cccc2ccccc12)N(CCc1ccc(Cl)cc1)c1ncc2c(N)nc(N)nc2n1 (stereo not drawn) ): 2

Recorded MIC (molecule Cc1ccc([C@@H](C)N(CC2CC2)c2ncc3c(N)nc(N)nc3n2)c2ccccc12 ): 2

Recorded MIC (molecule CCN(c1ncc2c(N)nc(N)nc2n1)C(C)c1cccc2ccccc12 (stereo not drawn) ): 2

Query molecule follows.
Recorded MIC (molecule CC(c1cccc2ccccc12)N(CCCCO)c1ncc2c(N)nc(N)nc2n1 (stereo not drawn) ): 2
